Molecular target: integrin α4β7 (Homo sapiens, UniProt P13612+P26010)
Construct: lymphoma cell strain RPMI-8866 of human B cells, known to express integrin α4β7; endogenous in cells; host or cells: RPMI-8866 (human B lymphoma cell line)
Sequence (P13612 34-1032): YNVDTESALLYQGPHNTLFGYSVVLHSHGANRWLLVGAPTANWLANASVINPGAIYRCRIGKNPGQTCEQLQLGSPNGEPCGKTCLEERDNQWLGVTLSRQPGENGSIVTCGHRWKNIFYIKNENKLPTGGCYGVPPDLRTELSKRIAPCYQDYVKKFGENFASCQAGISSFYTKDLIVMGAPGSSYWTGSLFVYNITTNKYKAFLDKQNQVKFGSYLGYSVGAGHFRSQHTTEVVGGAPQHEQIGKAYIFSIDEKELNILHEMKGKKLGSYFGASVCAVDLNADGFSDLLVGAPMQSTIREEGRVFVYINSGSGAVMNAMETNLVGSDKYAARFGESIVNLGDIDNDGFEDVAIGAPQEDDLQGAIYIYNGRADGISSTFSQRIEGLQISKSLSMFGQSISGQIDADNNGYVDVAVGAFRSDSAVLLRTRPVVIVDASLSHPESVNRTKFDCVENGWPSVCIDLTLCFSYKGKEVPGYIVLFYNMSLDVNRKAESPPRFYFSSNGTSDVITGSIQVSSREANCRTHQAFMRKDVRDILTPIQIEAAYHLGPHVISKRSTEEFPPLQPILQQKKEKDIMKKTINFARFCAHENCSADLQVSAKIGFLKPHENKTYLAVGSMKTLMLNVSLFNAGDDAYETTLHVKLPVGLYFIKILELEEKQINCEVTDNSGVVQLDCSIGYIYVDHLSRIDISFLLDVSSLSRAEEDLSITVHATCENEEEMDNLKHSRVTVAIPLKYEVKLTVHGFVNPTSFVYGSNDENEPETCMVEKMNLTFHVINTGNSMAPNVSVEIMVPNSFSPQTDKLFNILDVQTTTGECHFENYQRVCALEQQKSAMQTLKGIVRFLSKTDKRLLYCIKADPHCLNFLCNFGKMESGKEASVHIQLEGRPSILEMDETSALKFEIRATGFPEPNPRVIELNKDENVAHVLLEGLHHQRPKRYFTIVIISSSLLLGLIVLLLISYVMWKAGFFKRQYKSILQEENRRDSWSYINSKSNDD
Sequence (P26010 20-798): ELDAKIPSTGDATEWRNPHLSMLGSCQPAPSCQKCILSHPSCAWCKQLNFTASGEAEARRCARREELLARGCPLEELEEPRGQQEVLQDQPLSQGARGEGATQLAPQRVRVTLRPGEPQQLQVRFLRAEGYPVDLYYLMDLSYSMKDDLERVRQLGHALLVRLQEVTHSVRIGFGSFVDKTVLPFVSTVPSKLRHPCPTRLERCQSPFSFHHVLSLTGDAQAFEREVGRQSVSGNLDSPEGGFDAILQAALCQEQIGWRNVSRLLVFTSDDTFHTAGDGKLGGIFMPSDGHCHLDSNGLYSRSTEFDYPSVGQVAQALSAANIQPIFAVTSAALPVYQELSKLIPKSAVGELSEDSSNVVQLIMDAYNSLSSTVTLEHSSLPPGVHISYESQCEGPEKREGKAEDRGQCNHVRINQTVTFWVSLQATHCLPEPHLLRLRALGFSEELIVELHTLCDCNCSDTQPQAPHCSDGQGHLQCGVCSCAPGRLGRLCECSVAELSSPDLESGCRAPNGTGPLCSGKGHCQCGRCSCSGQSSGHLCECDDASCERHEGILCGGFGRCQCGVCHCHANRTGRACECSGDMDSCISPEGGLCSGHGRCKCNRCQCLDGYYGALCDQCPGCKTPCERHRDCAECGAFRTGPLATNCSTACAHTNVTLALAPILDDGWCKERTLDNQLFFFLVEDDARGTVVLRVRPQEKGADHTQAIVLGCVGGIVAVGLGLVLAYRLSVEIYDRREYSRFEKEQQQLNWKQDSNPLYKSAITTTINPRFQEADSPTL
Assay: VCAM antagonistic activity (VCAM-1/α4β7 binding assay)
Type: cell-based
Conditions: RPMI-8866 cells binding to VCAM-1; read-out: VCAM antagonistic activity (IC50) α4β7
recorded.metric: IC50

# input Consider the molecule CCC(C)(C(=O)NC(Cc1ccc(OCc2c(Cl)cccc2Cl)cc1)C(=O)O)C(=O)N1CCCC1 (mixture of isomers) and give its measured IC50.
# output 100 to 2000 nM

# input Another molecule to look at: CCC(CC)(C(=O)N[C@@H](Cc1ccc(NC(=O)c2ccccc2[N+](=O)[O-])cc1)C(=O)O)C(=O)N1CCCC1
# output < 20 nM

# input Repeat for the following molecule: CCC(CC)(C(=O)N[C@@H](Cc1ccc(NC(=O)c2nc(NC)ncc2Cl)cc1)C(=O)O)C(=O)N1CCCC1
# output < 20 nM

# input Same lookup for O=CN1CCN(C(=O)C2(C(=O)N[C@@H](Cc3ccc(OCc4c(Cl)cccc4Cl)cc3)C(=O)O)CCC2)CC1 , please.
# output 100 to 2000 nM

# input And for CC(C)(C(=O)N[C@@H](Cc1ccc(OCc2c(Cl)cccc2Cl)cc1)C(=O)O)C(=O)N1CCCC1 ?
# output 20 to 100 nM

# input CCC(CC)(C(=O)N[C@@H](Cc1ccc(OCc2c(Cl)cccc2Cl)cc1)C(=O)O)C(=O)N1CCOCC1 ?
# output 20 to 100 nM

# input Follow-up entry: O=C(O)[C@H](Cc1ccc(OCc2c(Cl)cccc2Cl)cc1)NC(=O)C1(C(=O)N2CCN(c3ccc(O)cc3)CC2)CCCC1
# output 100 to 2000 nM

---

Biological target: integrin α4β7 (Homo sapiens, UniProt P13612+P26010)
Construct: lymphoma cell strain RPMI-8866 of human B cells, known to express integrin α4β7; endogenous in cells; host or cells: RPMI-8866 (human B lymphoma cell line)
Test: VCAM antagonistic activity (VCAM-1/α4β7 binding assay)
Type: cell-based
Conditions: RPMI-8866 cells binding to VCAM-1; read-out: VCAM antagonistic activity (IC50) α4β7
pIC50: −log10 of the molar value.
Please respond with reported pIC50 for every item in the list.

# input Look up pIC50 for this compound: CCC(CC)(C(=O)N[C@@H](Cc1ccc(OCc2c(Cl)cccc2Cl)cc1)C(=O)O)C(=O)N1CC[C@@H](NC)C1
# output 7.00 to 7.70

# input What about CCC(CC)(C(=O)N[C@@H](Cc1ccc(-n2c(=O)c3ccccc3n(Cc3ccc4ccccc4c3)c2=O)cc1)C(=O)O)C(=O)N1CCCC1 ?
# output 7.00 to 7.70

# input And then CN(C)C(=O)C1(C(=O)N[C@@H](Cc2ccc(NC(=O)c3cc(Br)ccc3Cl)cc2)C(=O)O)CC1 , what is it?
# output 7.00 to 7.70

# input // same read-out, input: CCC(CC)(C(=O)N[C@@H](Cc1ccc(-c2c(OC)cccc2OC)cc1)C(=O)O)C(=O)N(C)C
# output 7.00 to 7.70

# input Here is the next compound: CCC(CC)(C(=O)N[C@@H](Cc1ccc(OCc2c(Cl)cccc2Cl)cc1)C(=O)O)C(=O)N1CCC[C@H]1C(=O)NC
# output > 7.70

# input Next entry: CCC(CC)(C(=O)N[C@@H](Cc1ccc(OCc2c(Cl)cccc2Cl)cc1)C(=O)O)C(=O)N1CCC[C@H]1CN1CCCC1
# output > 7.70

# input Field entry: CCC(CC)(C(=O)N[C@@H](Cc1ccc(OCc2c(Cl)cccc2Cl)cc1)C(=O)O)C(=O)N1CCCC1
# output 7.00 to 7.70

# input # iterate: CCC(CC)(C(=O)N[C@@H](Cc1ccc(OCc2c(Cl)cccc2Cl)cc1)C(=O)O)C(=O)N1CCC[C@@H]1C(N)=O
# output > 7.70

# input Would you kindly repeat that for CCC(CC)(C(=O)N[C@@H](Cc1ccc(NC(=O)c2nc(N3CCCC3)ncc2Cl)cc1)C(=O)O)C(=O)N1CCCC1 ?
# output > 7.70

# input // query: COc1ccc(Br)c(C(=O)Nc2ccc(C[C@H](NC(=O)C3(C(=O)N(C)C)CC3)C(=O)O)cc2)c1
# output 5.70 to 7.00

# input Same again, this time with CCC(CC)(C(=O)N[C@@H](Cc1ccc(NC(=O)c2cc(Br)ccc2Br)cc1)C(=O)O)C(=O)N1CCCC1
# output > 7.70

# input Same read-out for CCC(CC)(C(=O)NC(Cc1ccc(OCc2c(Cl)cccc2Cl)cc1)C(=O)O)C(=O)N1CCCC(CO)C1 (mixture of isomers) ?
# output 5.70 to 7.00

# input Same lookup for CCC(CC)(C(=O)N[C@@H](Cc1ccc(NC(=O)c2cc(F)c(F)cc2Cl)cc1)C(=O)O)C(=O)N1CCCC1 , please.
# output > 7.70

# input How about this compound: CCC(CC)(C(=O)N[C@@H](Cc1ccc(-n2c(=O)c3ccccc3n(CC(=O)OC)c2=O)cc1)C(=O)O)C(=O)N1CCCC1
# output 7.00 to 7.70
